# MEASURED TARGET: c-Cbl (residues 47-435) (Homo sapiens (Human), UniProt P22681)
# Sequence (P22681 47-435): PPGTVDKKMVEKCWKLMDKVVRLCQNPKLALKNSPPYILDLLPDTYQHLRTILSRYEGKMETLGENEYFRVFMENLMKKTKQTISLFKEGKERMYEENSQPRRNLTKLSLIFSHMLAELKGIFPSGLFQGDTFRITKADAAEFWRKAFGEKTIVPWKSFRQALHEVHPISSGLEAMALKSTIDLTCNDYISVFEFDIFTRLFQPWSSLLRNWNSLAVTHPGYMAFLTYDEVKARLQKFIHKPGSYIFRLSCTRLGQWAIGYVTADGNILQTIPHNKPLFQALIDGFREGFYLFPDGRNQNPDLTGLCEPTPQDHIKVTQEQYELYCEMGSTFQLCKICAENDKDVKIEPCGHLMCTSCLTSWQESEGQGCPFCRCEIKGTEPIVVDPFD
Classification by Kd | ranges: bin 0: < 20 nM; bin 1: ≥ 20 nM and < 200 nM; bin 2: ≥ 200 nM

COMPOUND	GROUP
CC1(NCc2cc3c(c(C(F)(F)F)c2)CN(c2cccc([C@@H](C4COC4)n4ccnn4)c2)C3=O)CCC1 (single isomer, unassigned)	bin 2
CO[C@H]1C[C@](c2cc(OC3CCCC3)cc(N3Cc4c(cc(CNC5(C)CCC5)cc4C(F)(F)F)C3=O)c2)(c2nncn2C)C1	bin 2
Cn1cnnc1[C@H](C[C@H]1CCOC1)c1cccc(N2Cc3c(cc(CNC4(C)CCC4)cc3C(F)(F)F)C2=O)c1	bin 2

Please let me know in which category the item `Cn1cnnc1[C@]1(c2cc(NC3CC(F)(F)C3)nc(N3Cc4c(cc(CNC5(C)CCC5)cc4C(F)(F)F)C3=O)c2)C[C@H](C)C1` belongs.
bin 0

Please let me know in which category the item CO[C@H]1C[C@](c2cccc(N3Cc4c(cc([C@H](C)NC5(C)CCC5)cc4C(F)(F)F)C3=O)c2)(c2nncn2C)C1 (single isomer, unassigned) belongs.
bin 1

Please let me know in which category the item CC1=C[C@@](c2cc(NC3CCC3)nc(N3Cc4c(cc(CN5CCN(C)C[C@@H]5C(C)C)cc4C(F)(F)F)C3=O)c2)(c2nncn2C)C1 (single isomer, unassigned) belongs.
bin 1

Please let me know in which category the item `COc1cc(N2Cc3c(cc(CNC4(C)CCC4)cc3C(F)(F)F)C2=O)cc([C@]2(c3nncn3C)C[C@H](OC)C2)c1` belongs.
bin 0

Please let me know in which category the item `Cn1cnnc1C1(c2cc(NCCC#N)nc(N3Cc4c(cc(CNC5(C)CCC5)cc4C(F)(F)F)C3=O)c2)CC2(COC2)C1` belongs.
bin 0

Please let me know in which category the item C[C@H](c1cccc(N2Cc3c(cc(CNC4(C)CCC4)cc3C(F)(F)F)C2=O)c1)c1nncn1C (single isomer, unassigned) belongs.
bin 0

Please let me know in which category the item CC(C)[C@H]1CN(C)CCN1Cc1cc2c(c(C(F)(F)F)c1)CN(c1cccc([C@]3(c4nncn4C)C[C@H](C#N)C3)c1)C2=O (single isomer, unassigned) belongs.
bin 0

Please let me know in which category the item COC1CC2(C1)CC(c1cccc(N3Cc4c(cc(CNC5(C)CCC5)cc4C(F)(F)F)C3=O)c1)(c1nncn1C)C2 (centres unmarked) belongs.
bin 2

Please let me know in which category the item Cn1cnnc1C(F)(c1cccc(N2Cc3c(cc(CNC4(C)CCC4)cc3C(F)(F)F)C2=O)c1)C1COC1 (single isomer, unassigned) belongs.
bin 1

Please let me know in which category the item Cn1cnnc1[C@@H](c1cccc(N2Cc3c(cc(CNC4(C)CCC4)cc3C(F)(F)F)C2=O)c1)C1CC(OCC(F)F)C1 (some centres unmarked) belongs.
bin 2

Please let me know in which category the item `C[C@@H](NC1(C)CCC1)c1cc2c(c(C(F)(F)F)c1)CN(c1cccc([C@H](c3nncn3C)C3COC3)c1)C2=O` belongs.
bin 0

Please let me know in which category the item CO[C@H]1C[C@](c2cccc(N3Cc4c(cc([C@@H](C)NC5(C)CCC5)cc4C(F)(F)F)C3=O)c2)(c2nncn2C)C1 (single isomer, unassigned) belongs.
bin 0

Please let me know in which category the item CO[C@H]1C[C@@](O)(C(c2cccc(N3Cc4c(cc(CNC5(C)CCC5)cc4C(F)(F)F)C3=O)c2)c2nncn2C)C1 (single isomer, unassigned) belongs.
bin 2
